Tested on: Saccharomyces cerevisiae
protocolDescription: protein stability index of tFT-peptide fusion (C-terminal peptide) (PSI (0-1 scale)); higher = more stable (slower turnover)
testConditions: genetic background: das1 deletion; temperature: 30 C
# protein stability index >= 0.5 gives 1.0, anything below gives 0.0

**Q:** Does VCCSILFSAFLV have a reported protein stability index of at least 0.5?
**A:** 1.0

**Q:** # repeat for LQNCRVSVLLGW
**A:** 0.0

**Q:** # repeat for FLLCRVFVLLRS
**A:** 0.0

**Q:** # repeat for APLSPLLPPFLC
**A:** 1.0

**Q:** # repeat for RPPSLVFLFLLT
**A:** 0.0

**Q:** # repeat for KGSKGELGVHVG
**A:** 1.0

###

Can you tell me protein stability index for the items I'm about to list?
Tested on: Saccharomyces cerevisiae
protocolDescription: protein stability index of tFT-peptide fusion in deletion strain of DOA10 (PSI (0-1 scale)); higher = more stable (slower turnover)
Numbers only.

sequenceData	measuredTarget	readoutValue
RVTRLDAIYFTI	Saccharomyces cerevisiae	0.64
RVTRLDLIYFRI	Saccharomyces cerevisiae	0.654

# per-item lookup of protein stability index; items listed below
1. AITLPMPPLLLR
2. CVVSLPILLFFR
3. AIPLPMCPLLLR
4. RVTRLDAIYFWI
5. RVTRLDAIAFRI
6. AHTLPMCPLLLR
7. NITLPMCPLLLR
8. RVVRLDAIYFRI

**A:**
[0.682, 0.589, 0.653, 0.561, 0.708, 0.664, 0.664, 0.65]

# per-item lookup of protein stability index; items listed below
1. CLVSLPILLFFG
2. CLVSLPILLTFR
3. AITLPMCGLLLR
4. AIILPMCPLLLR
5. CLVSTPILLFFR
6. CLVALPILLFFR
7. AETLPMCPLLLR

**A:**
1. 0.52
2. 0.627
3. 0.63
4. 0.617
5. 0.623
6. 0.512
7. 0.697

# per-item lookup of protein stability index; items listed below
1. RVTRLDAIYFRE
2. CDVSLPILLFFR
3. GLYMCSVGCWCR

**A:**
1: 0.725; 2: 0.648; 3: 0.45

# per-item lookup of protein stability index; items listed below
1. GQYMCSVGCWFR
2. RVKRLDAIYFRI

**A:**
0.673
0.64

###

Can you tell me protein stability index for the items I'm about to list?
Tested on: Saccharomyces cerevisiae
protocolDescription: protein stability index of tFT-peptide fusion (C-terminal peptide) (PSI (0-1 scale)); higher = more stable (slower turnover)
testConditions: genetic background: wild type; temperature: 30 C
Give bare numbers.

Illustrative cases are given below, each with its answer.
sequenceData	protein stability index
PPHFPPRPRPGP	0.685
VVSLAVVGRFLV	0.224
ASNRVLRILLPR	0.683

# per-item lookup of protein stability index; items listed below
1. TTCKTPPTYSFP
2. AWGYFTDTRERY
3. KETSERKNKETG
4. QRARDSLVQTRH
5. GTCGDRGRGGER
6. GVVPCVVGFICG

**A:**
[0.71, 0.687, 0.624, 0.681, 0.559, 0.687]

# per-item lookup of protein stability index; items listed below
1. CSSTTFADRRFM
2. YAKKIDTIIILT
3. VFPPLSRLLPGP
4. GFSFSSFLRGLF
5. QPSDTSHPHQPS

**A:**
1. 0.753
2. 0.54
3. 0.699
4. 0.625
5. 0.692

###

Can you tell me protein stability index for the items I'm about to list?
Test system: Saccharomyces cerevisiae
protocolDescription: protein stability index of tFT-peptide fusion (C-terminal peptide) (PSI (0-1 scale)); higher = more stable (slower turnover)
testConditions: genetic background: wild type; temperature: 30 C
Answers are plain numbers.

sequenceData	readoutValue
SKGECYSETDVA	0.684
ERGKGSRVGGST	0.643
PSGLRNAHRHRT	0.719
LMLISFLFLSLL	0.466

# per-item lookup of protein stability index; items listed below
1. QGGCAATRARGS
2. IESVGRTTRQGE
3. KKKKKIHIKNKK
4. SPPPPSRPTLPP
5. KKKKKKNKKEKK
6. KRKKKKKRRTKK

**A:**
0.631
0.748
0.707
0.593
0.689
0.644

###

System: Saccharomyces cerevisiae
protocolDescription: protein stability index of tFT-peptide fusion (C-terminal peptide) (PSI (0-1 scale)); higher = more stable (slower turnover)
testConditions: genetic background: cdc53-1; temperature: 37 C
# protein stability index >= 0.5 gives TRUE, anything below gives FALSE

Sample answers from the record:
sequenceData	assignedCategory
QCRLPRPPLSLP	TRUE
PPSLPPLISFSP	TRUE
FLDYLLFIFFFF	TRUE
LAGLVRFWGCVG	TRUE
GSVHLTKERHLV	TRUE

**Q:** Does DLVGRETRMRLN have a reported protein stability index of at least 0.5?
**A:** TRUE

**Q:** # repeat for FELSVSVFQSVV
**A:** FALSE

**Q:** # repeat for LFNRCCTILVVW
**A:** FALSE

**Q:** # repeat for FCFVRGLLFLFF
**A:** TRUE

**Q:** # repeat for FMANRYICQKTL
**A:** TRUE

**Q:** # repeat for YLCFVVSCGVLR
**A:** FALSE

**Q:** # repeat for FVVVVVWVSRGL
**A:** FALSE

###

Can you tell me protein stability index for the items I'm about to list?
System: Saccharomyces cerevisiae
protocolDescription: protein stability index of tFT-peptide fusion (C-terminal peptide) (PSI (0-1 scale)); higher = more stable (slower turnover)
testConditions: genetic background: wild type; temperature: 30 C
Give bare numbers.

sequenceData	readoutValue
CPPSPSPPLPPL	0.712
EKKHNKKEVIKK	0.699
CSHSLFASCSSL	0.695

# per-item lookup of protein stability index; items listed below
1. KTINKEQKKKEM
2. FFSSHPCYFSTF
3. PSIALVRLDVIC

**A:**
[0.7, 0.69, 0.392]

# per-item lookup of protein stability index; items listed below
1. EGRMEAGVEGNS
2. VQMKVKKRLNEW
3. IKIIKNDQKRIK
4. VREILKDGIFDP

**A:**
1: 0.657; 2: 0.674; 3: 0.709; 4: 0.717

# per-item lookup of protein stability index; items listed below
1. GLSPDFRFMGVR
2. MKGELRHRWCPL
3. PPQPTSPIRMPT
4. VWRGGGVRLGRL
5. VVFVRLGWMRAC

**A:**
0.667
0.71
0.735
0.75
0.172

# per-item lookup of protein stability index; items listed below
1. KIILMCYTLITL
2. AGQWGCAGGGEW
3. CGFVCGLCLCRV
4. SSGVCSGTSALN

**A:**
1. 0.264
2. 0.703
3. 0.484
4. 0.681

###

Test system: Saccharomyces cerevisiae
protocolDescription: protein stability index of tFT-peptide fusion in wild type (PSI (0-1 scale)); higher = more stable (slower turnover)
testConditions: genetic background: wild type
# protein stability index >= 0.4 gives yes (1), anything below gives no (0)

Sample answers from the record:
sequenceData	measuredTarget	assignedCategory
PDKRNHLISLLN	Saccharomyces cerevisiae	yes (1)
LKILRQKMNHQQ	Saccharomyces cerevisiae	no (0)
RSLPVLLPLYFR	Saccharomyces cerevisiae	no (0)
ARWRVGSWRGAS	Saccharomyces cerevisiae	yes (1)
CLVSLEILLFFR	Saccharomyces cerevisiae	no (0)
DKILRQKMNHQN	Saccharomyces cerevisiae	no (0)

**Q:** Does GLYMCGVGCWFR have a reported protein stability index of at least 0.4?
**A:** no (0)

**Q:** # repeat for VRGAVGGWYLVG
**A:** yes (1)

**Q:** # repeat for AITLPMCPLNLR
**A:** yes (1)

**Q:** # repeat for VRGAVGGWRLVGN
**A:** yes (1)

**Q:** # repeat for RLIQPLMVQFLN
**A:** no (0)

**Q:** # repeat for SLIQPLPVQFLN
**A:** no (0)

**Q:** # repeat for VRGAVGGWRLVH
**A:** no (0)

**Q:** # repeat for FITLPMCPLLLR
**A:** no (0)

**Q:** # repeat for VRGAVGGWRSVG
**A:** no (0)

**Q:** # repeat for VRGAVGGWELVG
**A:** yes (1)

**Q:** # repeat for RPTRLDAIYFRI
**A:** yes (1)

**Q:** # repeat for CTSCGYKFGTNN
**A:** yes (1)

**Q:** # repeat for VRGAVSGWRLVG
**A:** no (0)

###

Tested on: Saccharomyces cerevisiae
protocolDescription: protein stability index of tFT-peptide fusion (C-terminal peptide) (PSI (0-1 scale)); higher = more stable (slower turnover)
testConditions: genetic background: wild type; temperature: 30 C
assayEndpoint: protein stability index

Illustrative cases are given below, each with its answer.
sequenceData	protein stability index
PLLLFFFPRLLF	0.382
GWRFCVFIYVHR	0.107
GYSMPVSFFFAL	0.24
NLFVFLSYLFNV	0.34
LSCCIVLLIIFV	0.262
VTEGMKEVIKQI	0.402

# per-item lookup of protein stability index; items listed below
1. IFCRCNSTVLLI
2. LRVVLVEWMCVV

**A:**
1. 0.37
2. 0.21
